molecular target: C. albicans Aox2 (rAox2) (Candida albicans); test: NADH oxidation at […] nm, E. coli membranes; type: biochemical; settings: NADH; 65 mM MOPS pH 7.5, 1 mM KCN, 10 mM GMP; 10 min preincubation
Sequence (Q9UV71 whole entry): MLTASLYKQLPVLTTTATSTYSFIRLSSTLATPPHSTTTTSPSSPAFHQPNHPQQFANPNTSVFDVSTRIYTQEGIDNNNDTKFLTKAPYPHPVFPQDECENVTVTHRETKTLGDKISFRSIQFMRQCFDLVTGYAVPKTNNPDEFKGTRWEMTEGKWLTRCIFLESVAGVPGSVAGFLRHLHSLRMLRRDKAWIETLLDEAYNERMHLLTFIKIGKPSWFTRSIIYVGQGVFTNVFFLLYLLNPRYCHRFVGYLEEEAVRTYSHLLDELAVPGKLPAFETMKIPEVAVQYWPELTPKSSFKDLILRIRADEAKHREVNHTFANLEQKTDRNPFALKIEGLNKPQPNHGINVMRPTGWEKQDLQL
PROPERTY: pIC50
pIC50 here: minus log base 10 of the concentration, concentration in moles per litre.

Problem: Using the record for Cc1c(Br)c(O)c(CCCCCCCCCCCC[P+](c2ccccc2)(c2ccccc2)c2ccccc2)c(O)c1C=O , report its pIC50.
Result: 4.82

---

biological target: C. albicans Aox2 (rAox2) (Candida albicans); experiment: NADH oxidation at […] nm, E. coli membranes; type: biochemical
The entries below are paired with their reported pIC50.
pIC50 here: minus log base 10 of the concentration, concentration in moles per litre.

Recorded pIC50, per entry:
- SMILES_ENTRY: "Cc1c(Br)c(O)c(CCCCCCCC[P+](c2ccccc2)(c2ccccc2)c2ccccc2)c(O)c1C=O"
  TARGET: "C. albicans Aox2 (rAox2) (Candida albicans)"
  pIC50: 4.95
- SMILES_ENTRY: "CC(C)=CCC/C(C)=C/Cc1c(O)c(Cl)c(C)c(C=O)c1O"
  TARGET: "C. albicans Aox2 (rAox2) (Candida albicans)"
  pIC50: 8.14

For the next question, use this compound.
Problem: Which pIC50 is reported with C. albicans Aox2 (rAox2) (Candida albicans) for this entry: CC(C)=CCC/C(C)=C/Cc1c(O)c(Br)c(C)c(C=O)c1O ?
Result: 7.68

Origin of values: paper PMC11832467
